# target or system: recombinant human KRAS^G12D protein (Homo sapiens, UniProt P01116, G12D)
# Sequence (P01116 1-188 isoform P01116-2 G12D): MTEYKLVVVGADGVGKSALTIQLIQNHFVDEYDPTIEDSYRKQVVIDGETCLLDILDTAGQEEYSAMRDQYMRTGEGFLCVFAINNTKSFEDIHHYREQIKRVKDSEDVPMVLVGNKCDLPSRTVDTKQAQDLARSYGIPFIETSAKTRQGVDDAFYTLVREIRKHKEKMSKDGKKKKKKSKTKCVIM
# assay comment: Temperature-dependent Fluorescence (TdF) KRAS G12D protein binding assay
# condition context: 6 μM KRAS^G12D protein, 10 μM compound, Sypro Orange; Kd calculated from the fluorescent shift
pKd: −log10 of the molar value.
property: pKd

CN1CCC[C@H]1COc1nc(N2CC3CCC(C2)N3)c2cc(Cl)c(-c3c(N)cccc3F)c(F)c2n1: < 5.30
Cc1cccc2cc(O)cc(-c3c(Cl)cc4c(N5CC6CCC(C5)N6)nc(OC[C@@]56CCCN5C[C@H](F)C6)nc4c3F)c12 (single isomer, unassigned) [Compound 117]: > 6.30
CN1CCC[C@H]1COc1nc(N2CCNCC23CC3)c2cc(Cl)c(-c3cc(O)cc4cccc(Cl)c34)c(F)c2n1: 5.30 to 6.30
